Molecular target: Transient receptor potential cation channel subfamily A member 1 (Rattus norvegicus)
Sequence (Q6RI86 whole entry): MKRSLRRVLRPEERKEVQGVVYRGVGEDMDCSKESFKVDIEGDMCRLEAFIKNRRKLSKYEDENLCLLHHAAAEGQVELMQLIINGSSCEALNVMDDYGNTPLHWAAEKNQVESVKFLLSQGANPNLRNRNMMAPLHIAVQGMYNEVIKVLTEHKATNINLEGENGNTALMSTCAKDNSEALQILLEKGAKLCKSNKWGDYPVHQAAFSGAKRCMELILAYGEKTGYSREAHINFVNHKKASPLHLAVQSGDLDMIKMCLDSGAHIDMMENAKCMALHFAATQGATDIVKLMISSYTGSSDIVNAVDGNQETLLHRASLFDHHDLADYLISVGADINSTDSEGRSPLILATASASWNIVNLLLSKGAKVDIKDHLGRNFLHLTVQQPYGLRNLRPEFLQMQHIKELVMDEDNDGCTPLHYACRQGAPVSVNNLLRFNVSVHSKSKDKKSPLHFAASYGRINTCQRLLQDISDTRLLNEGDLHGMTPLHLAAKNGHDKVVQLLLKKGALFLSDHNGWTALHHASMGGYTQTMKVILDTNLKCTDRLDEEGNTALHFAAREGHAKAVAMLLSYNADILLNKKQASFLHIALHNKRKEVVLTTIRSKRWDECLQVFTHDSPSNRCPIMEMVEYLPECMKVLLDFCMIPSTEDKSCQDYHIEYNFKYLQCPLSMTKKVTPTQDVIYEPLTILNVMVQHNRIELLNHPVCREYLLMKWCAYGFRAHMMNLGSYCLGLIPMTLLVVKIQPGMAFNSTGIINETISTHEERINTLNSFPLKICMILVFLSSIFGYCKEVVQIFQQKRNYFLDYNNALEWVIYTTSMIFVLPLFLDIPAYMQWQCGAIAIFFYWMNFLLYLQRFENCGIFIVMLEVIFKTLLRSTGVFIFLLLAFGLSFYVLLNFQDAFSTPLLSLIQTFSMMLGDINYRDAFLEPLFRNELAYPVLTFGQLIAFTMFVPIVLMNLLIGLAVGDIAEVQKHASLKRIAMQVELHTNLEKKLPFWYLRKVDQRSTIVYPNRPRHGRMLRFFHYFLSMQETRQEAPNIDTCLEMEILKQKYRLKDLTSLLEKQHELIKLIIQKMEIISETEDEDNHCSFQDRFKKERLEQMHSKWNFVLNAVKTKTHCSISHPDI
Test: Antagonist activity at Sprague-Dawley rat TRPA1 expressed in rat DRG neurons assessed as inhibition of acrolein-induced calcium influx after 40 mins by fluorescence analysis
Metric: pIC50
By convention, pIC50 is the negative base-10 log of a molar concentration.

Retrieve pIC50 measured for COc1cccc(C2NC(=S)NC3=C2C(=O)c2ccccc23)c1 (stereo not given) and print it. 5.47

Annotate the compound `Cn1c(=O)c2c(ccn2CC(=O)Nc2ccc(C(F)(F)F)cc2)n(C)c1=O` with its measured pIC50. 5.55

Name the recorded pIC50 of the item `CC(=C\c1ccc(Cl)cc1)/C(C)=N/O` in your answer. 5.47

Report measured pIC50; entry is `Cn1c(=O)c2c(ccn2CC(=O)Nc2nc(-c3ccc(F)c(C(F)(F)F)c3)cs2)n(C)c1=O` 5.89

Tell me measured pIC50 for `CC(C)c1ccc(NC(=O)Cn2cnc3c2c(=O)n(C)c(=O)n3C)cc1` please. 5.68

###

Target: Transient receptor potential cation channel subfamily A member 1 (Rattus norvegicus) (UniProt Q6RI86)
Sequence (Q6RI86 whole entry): as above
Experiment: Antagonist activity at Sprague-Dawley rat TRPA1 expressed in rat DRG neurons assessed as inhibition of acrolein-induced calcium influx at 30 uM after 40 mins by fluorescence analysis
Assay type: functional
Metric: inhibition (%)
Output spec: scalar in %, unitless text.

Annotate the compound `CCCCCCc1ccc(NC(=O)Cn2ccc3c2c(=O)n(C)c(=O)n3C)cc1` with its measured inhibition. 93.3

Fill in inhibition for record `Cn1c(=O)c2c(ccn2CC(=O)Nc2nc(-c3ccc(C(F)(F)F)cc3)cs2)n(C)c1=O` 80.2

Complete the entry with inhibition for COc1cccc(C2NC(=S)NC3=C2C(=O)c2ccccc23)c1 (stereo not drawn) 99.5

Return reported inhibition. Input compound: `Cn1c(=O)c2c(ccn2CC(=O)Nc2ccc(C(F)(F)F)cc2)n(C)c1=O` 99.7

Entry `CC(C)c1ccc(NC(=O)Cn2cnc3c2c(=O)n(C)c(=O)n3C)cc1` needs its inhibition filled in; supply it. 99.8

Answer with reported inhibition of `CCCCCCc1ccc(-c2csc(NC(=O)Cn3ccc4c3c(=O)n(C)c(=O)n4C)n2)cc1` 99.4

Return the recorded inhibition value; entry: `Cn1c(=O)c2c(ccn2CC(=O)Nc2nc(-c3ccc(F)c(C(F)(F)F)c3)cs2)n(C)c1=O` 99.6

Quote inhibition reported for `Cn1c(=O)c2c(ccn2CC(=O)Nc2ccc(OC(F)(F)F)cc2)n(C)c1=O` please. 99.5

###

Target: Transient receptor potential cation channel subfamily V member 1 (Rattus norvegicus)
Assay: Antagonist activity at Sprague-Dawley rat TRPV1 expressed in rat DRG neurons assessed as inhibition of capsaicin-induced calcium influx after 40 mins by fluorescence analysis
Type: functional
Activity calls are given as the source filed them. The rule behind the calls is not given here.
Metric: inhibition

Study these solved cases before continuing.
{"columns": ["Compound", "Obs Value"],
 "data": [
  ["Cn1c(=O)c2c(ccn2CC(=O)Nc2nc(-c3ccc(F)c(C(F)(F)F)c3)cs2)n(C)c1=O", "inactive"],
  ["CC(C)c1ccc(NC(=O)Cn2cnc3c2c(=O)n(C)c(=O)n3C)cc1", "inactive"],
  ["CC(=C\\c1ccc(Cl)cc1)/C(C)=N/O", "inactive"],
  ["COc1cccc(C2NC(=S)NC3=C2C(=O)c2ccccc23)c1 (stereo not given)", "inactive"]
]}

Turning now to a further compound:
Tell me inhibition reported for `Cn1c(=O)c2c(ccn2CC(=O)Nc2ccc(C(F)(F)F)cc2)n(C)c1=O` inactive

###

Please provide measured inhibition for the entries that follow.
Target: Transient receptor potential cation channel subfamily A member 1 (Rattus norvegicus)
Experiment: Antagonist activity at Sprague-Dawley rat TRPA1 expressed in rat DRG neurons assessed as inhibition of acrolein-induced calcium influx at 30 uM after 40 mins by fluorescence analysis
Assay type: functional
Field: numeric (%). Do not append units.

Answer with the recorded inhibition of `Cn1c(=O)c2c(ccn2CC(=O)Nc2ccc(C(C)(C)C)cc2)n(C)c1=O` only. 95.8

Return reported inhibition. Input compound: CC(=C\c1ccc(Cl)cc1)/C(C)=N/O [AP18 5] 90.1

Check the records and state inhibition for `Cn1c(=O)c2c(ccn2CC(=O)Nc2ccc(I)cc2)n(C)c1=O` 85.4

Give the value of inhibition reported for the following: `Cn1c(=O)c2c(ccn2CC(=O)Nc2nc(-c3ccc(F)cc3)cs2)n(C)c1=O` 99.2

Item `CCCCc1ccc(NC(=O)Cn2ccc3c2c(=O)n(C)c(=O)n3C)cc1` : provide inhibition 97.1

###

Molecular target: UniProt O75762
Sequence (O75762 whole entry): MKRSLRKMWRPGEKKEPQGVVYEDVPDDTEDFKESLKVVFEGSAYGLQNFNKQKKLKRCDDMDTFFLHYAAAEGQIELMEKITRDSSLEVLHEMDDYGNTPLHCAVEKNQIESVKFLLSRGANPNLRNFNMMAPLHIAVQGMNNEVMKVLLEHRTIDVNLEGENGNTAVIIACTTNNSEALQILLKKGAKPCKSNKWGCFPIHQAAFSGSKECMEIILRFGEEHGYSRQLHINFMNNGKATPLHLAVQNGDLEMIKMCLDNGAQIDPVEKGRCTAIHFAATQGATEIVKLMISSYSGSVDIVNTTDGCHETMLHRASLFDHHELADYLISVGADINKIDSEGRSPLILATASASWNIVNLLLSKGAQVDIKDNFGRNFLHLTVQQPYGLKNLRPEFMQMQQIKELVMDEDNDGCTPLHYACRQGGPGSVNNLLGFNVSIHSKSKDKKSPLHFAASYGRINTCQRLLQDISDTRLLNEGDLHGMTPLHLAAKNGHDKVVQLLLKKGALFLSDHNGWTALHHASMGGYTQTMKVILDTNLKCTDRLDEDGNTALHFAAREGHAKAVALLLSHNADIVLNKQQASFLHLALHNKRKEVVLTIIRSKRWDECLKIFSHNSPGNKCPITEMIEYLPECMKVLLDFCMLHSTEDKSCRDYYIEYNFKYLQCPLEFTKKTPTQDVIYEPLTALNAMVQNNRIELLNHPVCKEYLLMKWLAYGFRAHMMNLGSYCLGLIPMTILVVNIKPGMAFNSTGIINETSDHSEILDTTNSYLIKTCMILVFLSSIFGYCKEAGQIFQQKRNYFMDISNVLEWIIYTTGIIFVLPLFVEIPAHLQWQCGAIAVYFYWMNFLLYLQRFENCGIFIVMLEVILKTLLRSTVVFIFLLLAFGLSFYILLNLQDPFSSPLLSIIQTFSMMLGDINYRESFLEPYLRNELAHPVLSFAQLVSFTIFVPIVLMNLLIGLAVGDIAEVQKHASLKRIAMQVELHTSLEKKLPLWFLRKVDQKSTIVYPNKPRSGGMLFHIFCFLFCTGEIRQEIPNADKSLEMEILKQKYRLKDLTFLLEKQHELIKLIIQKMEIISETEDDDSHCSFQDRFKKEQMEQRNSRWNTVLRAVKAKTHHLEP
Assay: Antagonist activity at human TRPA1 expressed in human IMR90 cells assessed as inhibition of acrolein-induced calcium influx at 30 uM after 40 mins by fluorescence analysis
Format: functional, cell-based
Conditions: IMR-90
Answer each item with its documented inhibition.

Return the recorded inhibition value; entry: `Cn1c(=O)c2c(ccn2CC(=O)Nc2ccc(Cl)cc2)n(C)c1=O` < 50%

Provide one value: measured inhibition of `CCCCc1ccc(NC(=O)Cn2ccc3c2c(=O)n(C)c(=O)n3C)cc1` 99%

Answer with the recorded inhibition for the molecule listed here: `COc1ccc(NC(=O)Cn2ccc3c2c(=O)n(C)c(=O)n3C)cc1` < 50%

Supply inhibition value. Item: COc1cccc(C2NC(=S)NC3=C2C(=O)c2ccccc23)c1 (stereo unspecified) 98.8%

Give inhibition for `Cn1c(=O)c2c(ccn2CC(=O)NCCCc2ccccc2)n(C)c1=O` < 50%

Query inhibition for `Cn1c(=O)c2c(ccn2CC(=O)Nc2ccc(SC(F)(F)F)cc2)n(C)c1=O` < 50%

Supply recorded inhibition for `Cn1c(=O)c2c(ccn2CC(=O)Nc2nc(-c3ccc(I)cc3)cs2)n(C)c1=O` here. < 50%

Read off the recorded inhibition for `Cn1c(=O)c2c(ccn2CC(=O)NC23CC4CC(CC(C4)C2)C3)n(C)c1=O` < 50%

Fill in reported inhibition for this entry: `Cc1ccc(CNC(=O)Cn2ccc3c2c(=O)n(C)c(=O)n3C)cc1` < 50%

Supply recorded inhibition for `Cn1c(=O)c2c(ccn2CC(=O)NCc2ccccc2)n(C)c1=O` here. < 50%

Please list inhibition recorded for the molecule `Cn1c(=O)c2c(ccn2CC(=O)Nc2ccc(C(F)(F)F)cc2)n(C)c1=O` 99.1%

Look up and state reported inhibition for `Cn1c(=O)c2c(ccn2CC(=O)Nc2ccc(C3CCCCC3)cc2)n(C)c1=O` < 50%

Look up and report measured inhibition for this entry: `CN(C(=O)Cn1ccc2c1c(=O)n(C)c(=O)n2C)c1ccc(F)cc1` < 50%

Give reported inhibition value for CC(=C\c1ccc(Cl)cc1)/C(C)=N/O [AP18 5] 98.9%

State its inhibition: `Cn1c(=O)c2c(ccn2CC(=O)NCCc2ccccc2)n(C)c1=O` < 50%

# return recorded inhibition for entry `CC(C)c1ccc(NC(=O)Cn2cnc3c2c(=O)n(C)c(=O)n3C)cc1` 97.5%

Return the recorded inhibition value; entry: `Cn1c(=O)c2c(ccn2CC(=O)Nc2ccc(N3CCOCC3)cc2)n(C)c1=O` < 50%

Tell me its inhibition given `CC(C)c1ccc(NC(=O)Cn2ccc3c2c(=O)n(C)c(=O)n3C)cc1` as the entry. < 50%

Using known records, supply inhibition for `Cn1c(=O)c2c(ccn2CC(=O)Nc2ccc(F)c(F)c2)n(C)c1=O` < 50%

Note inhibition for the molecule shown: `Cn1c(=O)c2c(ccn2CC(=O)Nc2nc(-c3ccc(F)c(C(F)(F)F)c3)cs2)n(C)c1=O` 99.3%

Query inhibition for `Cn1c(=O)c2c(ccn2CC(=O)Nc2ccc(S(=O)(=O)NCc3ccccc3)cc2)n(C)c1=O` < 50%

###

Biological target: UniProtKB Q6RI86
Assay: Antagonist activity at Sprague-Dawley rat TRPA1 expressed in rat DRG neurons assessed as inhibition of acrolein-induced calcium influx at 3 uM after 40 mins by fluorescence analysis
Type: functional
Rule: t for inhibition not less than 60%, f for anything less.

Could you please find out whether `CC(=C\c1ccc(Cl)cc1)/C(C)=N/O` has inhibition that meets 60% or exceeds it? f

// inclusive: inhibition at least 60%? input: `Cn1c(=O)c2c(ccn2CC(=O)Nc2ccc(I)cc2)n(C)c1=O` f

Say whether `CC(C)c1ccc(NC(=O)Cn2cnc3c2c(=O)n(C)c(=O)n3C)cc1` shows inhibition of 60% or more. t

inhibition >= 60% for `CCCCCCc1ccc(-c2csc(NC(=O)Cn3ccc4c3c(=O)n(C)c(=O)n4C)n2)cc1` ? t

Given the entry `Cn1c(=O)c2c(ccn2CC(=O)Nc2ccc(C(C)(C)C)cc2)n(C)c1=O` , answer whether its inhibition meets or surpasses 60%. f

Determine whether this compound has inhibition no lower than 60%: `Cn1c(=O)c2c(ccn2CC(=O)Nc2nc(-c3ccc(F)c(C(F)(F)F)c3)cs2)n(C)c1=O` t

Quick check, inhibition >= 60%? `Cn1c(=O)c2c(ccn2CC(=O)Nc2nc(-c3ccc(F)cc3)cs2)n(C)c1=O` f

Check this compound for inhibition at or above 60%: `CCCCc1ccc(NC(=O)Cn2ccc3c2c(=O)n(C)c(=O)n3C)cc1` t

Can `CCCCCCc1ccc(NC(=O)Cn2ccc3c2c(=O)n(C)c(=O)n3C)cc1` be said to have inhibition at or above 60%? f

Check this compound for inhibition at or above 60%: `Cn1c(=O)c2c(ccn2CC(=O)Nc2ccc(OC(F)(F)F)cc2)n(C)c1=O` f

State whether the measured inhibition reaches 60%, counting equality as reaching it, for COc1cccc(C2NC(=S)NC3=C2C(=O)c2ccccc23)c1 (stereo not drawn) f
